Origin of the recorded values: ChEMBL document CHEMBL1909046

experimental-target: Glucocorticoid receptor (Homo sapiens, UniProt P04150); also: in other assays of this panel Not Active means under 50% inhibition at 10 µM
Sequence (P04150 whole entry): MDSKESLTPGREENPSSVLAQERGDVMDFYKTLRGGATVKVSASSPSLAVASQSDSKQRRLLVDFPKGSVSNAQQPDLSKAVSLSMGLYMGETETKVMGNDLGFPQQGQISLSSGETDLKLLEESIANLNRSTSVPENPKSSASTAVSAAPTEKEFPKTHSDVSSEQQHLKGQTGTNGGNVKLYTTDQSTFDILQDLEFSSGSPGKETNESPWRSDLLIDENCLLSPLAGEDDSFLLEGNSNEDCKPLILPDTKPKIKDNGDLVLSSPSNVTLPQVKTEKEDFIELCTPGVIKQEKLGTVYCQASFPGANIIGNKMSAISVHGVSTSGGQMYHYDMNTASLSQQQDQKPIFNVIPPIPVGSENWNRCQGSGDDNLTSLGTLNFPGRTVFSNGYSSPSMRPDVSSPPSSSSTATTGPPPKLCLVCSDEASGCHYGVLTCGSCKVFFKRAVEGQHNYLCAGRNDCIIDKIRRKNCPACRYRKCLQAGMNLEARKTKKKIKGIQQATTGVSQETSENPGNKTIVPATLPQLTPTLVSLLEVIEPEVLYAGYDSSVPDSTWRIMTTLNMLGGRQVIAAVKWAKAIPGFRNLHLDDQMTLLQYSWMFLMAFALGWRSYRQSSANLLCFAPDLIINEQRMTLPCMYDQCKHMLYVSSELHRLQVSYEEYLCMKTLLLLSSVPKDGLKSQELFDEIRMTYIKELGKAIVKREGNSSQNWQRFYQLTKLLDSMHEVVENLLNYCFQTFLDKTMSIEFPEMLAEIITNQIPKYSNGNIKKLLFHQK
measurement-context: hela s3

# molecule, IC50
records = [
    ("OCCN1CCN(CCCN2c3ccccc3Sc3ccc(C(F)(F)F)cc32)CC1", "Not Active"),
    ("CCC(=O)O[C@H]1[C@H](O[C@@H]2[C@@H](C)[C@H](O[C@H]3C[C@@](C)(OC)[C@@H](O)[C@H](C)O3)[C@@H](C)C(=O)O[C@H](CC)[C@@](C)(O)[C@H](O)[C@@H](C)C(=O)[C@H](C)C[C@@]2(C)O)O[C@H](C)C[C@@H]1N(C)C [ERYTHROMYCIN PROPIONATE]", "Not Active"),
    ("Nc1nc(Cl)nc2c1ncn2[C@H]1C[C@H](O)[C@@H](CO)O1", "Not Active"),
]

* * *

experimental-target: Cannabinoid receptor 1 (Homo sapiens, UniProt P21554); also: in other assays of this panel Not Active means under 50% inhibition at 10 µM
Sequence (P21554 whole entry): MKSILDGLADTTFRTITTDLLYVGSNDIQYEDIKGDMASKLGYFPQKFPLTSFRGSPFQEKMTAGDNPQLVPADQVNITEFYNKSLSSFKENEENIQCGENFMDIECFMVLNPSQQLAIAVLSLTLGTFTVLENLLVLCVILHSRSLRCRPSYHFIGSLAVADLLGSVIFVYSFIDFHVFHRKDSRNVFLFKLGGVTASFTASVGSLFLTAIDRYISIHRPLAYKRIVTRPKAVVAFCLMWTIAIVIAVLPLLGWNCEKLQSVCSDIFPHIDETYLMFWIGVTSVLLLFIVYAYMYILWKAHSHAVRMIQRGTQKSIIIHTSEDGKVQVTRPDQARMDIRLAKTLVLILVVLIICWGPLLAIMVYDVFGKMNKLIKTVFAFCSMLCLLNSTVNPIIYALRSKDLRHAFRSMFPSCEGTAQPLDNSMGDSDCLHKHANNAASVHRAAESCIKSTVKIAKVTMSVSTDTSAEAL
Type: cell membranes, Membrane
measurement-context: chem-1
value-kind: IC50

Worked cases, answers included:
# compound, IC50
records = [
    ("O=P1(N(CCCl)CCCl)NCCCO1 (stereo unspecified) [CYCLOPHOSPHAMIDE ANHYDROUS]", "Not Active"),
    ("CC(C)(CO)C(O)C(=O)NCCCO (stereo unspecified)", "Not Active"),
    ("C=C1/C(=C\\C=C2/CCC[C@]3(C)[C@@H]([C@H](C)CCCC(C)C)CC[C@@H]23)C[C@@H](O)C[C@@H]1O", "Not Active"),
    ("CCCCC1C(=O)N(c2ccccc2)N(c2ccccc2)C1=O", "Not Active"),
    ("CN(C(=O)CCCOc1ccc2[nH]c(=O)ccc2c1)C1CCCCC1 [CILOSTAMIDE]", "Not Active"),
    ("CC(=O)OCC(CCn1cnc2cnc(N)nc21)COC(C)=O", "Not Active"),
    ("CO[C@H]1[C@@H](O)[C@H](N)[C@@H](O[C@H]2O[C@H]([C@H](C)N)CC[C@H]2N)[C@H](O)[C@@H]1N(C)C(=O)CN", "Not Active"),
    ("Cc1c(F)c(N2CCNC(C)C2)cc2c1c(=O)c(C(=O)O)cn2C1CC1 (stereo unspecified)", "Not Active"),
]

# value of IC50, Cannabinoid receptor 1 (Homo sapiens, UniProt P21554), item `NC[C@@H]1O[C@H](O[C@H]2[C@@H](O)[C@H](O[C@@H]3[C@@H](O)[C@H](N)C[C@H](N)[C@H]3O[C@H]3O[C@H](CN)[C@@H](O)[C@H](O)[C@H]3N)O[C@@H]2CO)[C@H](N)[C@@H](O)[C@@H]1O` = Not Active

The reported IC50 value, Cannabinoid receptor 1 (Homo sapiens, UniProt P21554), for Cc1cn[nH]c1 [FOMEPIZOLE] reads Not Active

Reported IC50 (Cannabinoid receptor 1 (Homo sapiens, UniProt P21554)) for entry CCOC(=O)C1=C(C)NC(C)=C(C(=O)OC)C1c1cccc(Cl)c1Cl (stereo unspecified) is Not Active

For the compound `CCOC(=O)[C@H](CCc1ccccc1)N[C@@H](C)C(=O)N1Cc2ccccc2C[C@H]1C(=O)O` , the measured IC50 on Cannabinoid receptor 1 (Homo sapiens, UniProt P21554) was Not Active

With Cannabinoid receptor 1 (Homo sapiens, UniProt P21554) as the test system, `C[C@]12CC[C@H]3[C@@H](CCC4=CC(=O)CC[C@@]43C)[C@@H]1CC[C@@H]2O` showed IC50 of Not Active

Measured IC50 (Cannabinoid receptor 1 (Homo sapiens, UniProt P21554)), entry CC(C(=O)O)c1ccc(-c2ccccc2)c(F)c1 (stereo unspecified) : Not Active

Cannabinoid receptor 1 (Homo sapiens, UniProt P21554) assay, compound COC(=O)c1ccccc1O [METHYL SALICYLATE] , recorded IC50 = Not Active

// returns IC50 for `CC[C@H](C)C(=O)O[C@H]1C[C@@H](C)C=C2C=C[C@H](C)[C@H](CC[C@@H]3C[C@@H](O)CC(=O)O3)[C@H]21` with Cannabinoid receptor 1 (Homo sapiens, UniProt P21554); value = Not Active

* * *

experimental-target: D(3) dopamine receptor (Homo sapiens, UniProt P35462)
Sequence (P35462 whole entry): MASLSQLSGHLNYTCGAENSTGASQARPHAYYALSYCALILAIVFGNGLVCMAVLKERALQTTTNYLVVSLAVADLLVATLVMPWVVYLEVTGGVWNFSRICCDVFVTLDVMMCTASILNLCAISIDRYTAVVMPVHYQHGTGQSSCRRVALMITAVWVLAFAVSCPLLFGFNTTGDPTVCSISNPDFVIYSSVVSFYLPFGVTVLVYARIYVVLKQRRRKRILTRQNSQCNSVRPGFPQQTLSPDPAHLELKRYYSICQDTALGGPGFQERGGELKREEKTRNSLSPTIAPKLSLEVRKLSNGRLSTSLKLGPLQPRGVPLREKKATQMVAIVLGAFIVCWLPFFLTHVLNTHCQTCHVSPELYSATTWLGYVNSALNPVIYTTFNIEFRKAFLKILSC
test-summary: DRUGMATRIX: Dopamine D3 radioligand binding (ligand: [3H] Spiperone)
Type: cell membranes, CHO, Membrane
measurement-context: cho

# molecule, IC50
measured = [
    ("Cc1cccc(Nc2ccccc2C(=O)O)c1C", "Not Active"),
    ("CN(CCOc1ccc(CC2SC(=O)NC2=O)cc1)c1ccccn1 (stereo not drawn)", "Not Active"),
    ("CCC(=O)O[C@H]1[C@H](O[C@@H]2[C@@H](C)[C@H](O[C@H]3C[C@@](C)(OC)[C@@H](O)[C@H](C)O3)[C@@H](C)C(=O)O[C@H](CC)[C@@](C)(O)[C@H](O)[C@@H](C)C(=O)[C@H](C)C[C@@]2(C)O)O[C@H](C)C[C@@H]1N(C)C [ERYTHROMYCIN PROPIONATE]", "Not Active"),
]

* * *

experimental-target: UniProt:P15823
Sequence (P15823 whole entry): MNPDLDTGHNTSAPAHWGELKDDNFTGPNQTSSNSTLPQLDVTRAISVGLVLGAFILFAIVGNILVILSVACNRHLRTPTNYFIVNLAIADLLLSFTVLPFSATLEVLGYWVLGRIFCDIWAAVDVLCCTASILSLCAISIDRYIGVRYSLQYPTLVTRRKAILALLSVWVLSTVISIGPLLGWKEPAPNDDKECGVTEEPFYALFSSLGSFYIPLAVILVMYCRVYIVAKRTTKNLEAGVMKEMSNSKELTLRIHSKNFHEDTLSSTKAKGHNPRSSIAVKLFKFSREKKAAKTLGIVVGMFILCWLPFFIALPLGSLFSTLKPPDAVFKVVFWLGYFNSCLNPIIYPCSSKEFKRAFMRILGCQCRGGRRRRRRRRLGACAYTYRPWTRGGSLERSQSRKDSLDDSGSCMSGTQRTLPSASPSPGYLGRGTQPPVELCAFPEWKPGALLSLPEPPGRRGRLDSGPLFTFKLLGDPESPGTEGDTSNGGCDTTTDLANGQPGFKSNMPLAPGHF
test-summary: DRUGMATRIX: Alpha-1B adrenergic receptor radioligand binding (ligand: prazosin)
Type: cell membranes, Wistar, Liver, Membrane
measurement-context: Not Active = under 50% inhibition at 10 µM; read-out: IC50
pIC50 listing for selected compounds.
Recall that pIC50 is obtained by taking minus log10 of the concentration measured in molar.

# compound, pIC50
measured = [
    ("CN1C[C@H](C(=O)N[C@]2(C)O[C@@]3(O)[C@@H]4CCCN4C(=O)[C@H](Cc4ccccc4)N3C2=O)C[C@@H]2c3cccc4[nH]cc(c34)C[C@H]21 [DIHYDROERGOTAMINE]", 8.09),
    ("CC(C)C[C@H]1C(=O)N2CCC[C@H]2[C@]2(O)O[C@](NC(=O)[C@@H]3C=C4c5cccc6[nH]c(Br)c(c56)C[C@H]4N(C)C3)(C(C)C)C(=O)N12", 8.45),
    ("CCCc1nn(C)c2c(=O)[nH]c(-c3cc(S(=O)(=O)N4CCN(C)CC4)ccc3OCC)nc12", 5.84),
]

Sure, the documented pIC50 for CC(CCc1ccc(O)cc1)NCCc1ccc(O)c(O)c1 (centres undefined) is 6.47

* * *

experimental-target: Sodium-dependent dopamine transporter (Homo sapiens, UniProt Q01959)
Sequence (Q01959 whole entry): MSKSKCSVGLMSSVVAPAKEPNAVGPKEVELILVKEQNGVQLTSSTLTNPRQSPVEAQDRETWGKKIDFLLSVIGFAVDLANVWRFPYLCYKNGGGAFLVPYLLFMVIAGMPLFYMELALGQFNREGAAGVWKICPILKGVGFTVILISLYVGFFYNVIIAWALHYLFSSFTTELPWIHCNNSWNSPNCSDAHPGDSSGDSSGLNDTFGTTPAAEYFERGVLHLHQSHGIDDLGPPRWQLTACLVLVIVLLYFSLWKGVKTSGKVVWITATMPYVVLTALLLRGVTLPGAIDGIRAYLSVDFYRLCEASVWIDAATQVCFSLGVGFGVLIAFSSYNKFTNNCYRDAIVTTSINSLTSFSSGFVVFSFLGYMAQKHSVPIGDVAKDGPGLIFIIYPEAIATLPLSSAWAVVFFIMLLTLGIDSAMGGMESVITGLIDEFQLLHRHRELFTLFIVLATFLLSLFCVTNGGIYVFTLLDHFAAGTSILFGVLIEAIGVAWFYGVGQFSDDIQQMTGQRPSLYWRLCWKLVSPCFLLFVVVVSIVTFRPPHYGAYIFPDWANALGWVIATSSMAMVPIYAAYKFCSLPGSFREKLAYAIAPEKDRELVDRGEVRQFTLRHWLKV
test-summary: DRUGMATRIX: Dopamine Transporter radioligand binding (ligand: [125I] RTI-55)
Type: cell membranes, CHO-K1, Membrane
measurement-context: Not Active = under 50% inhibition at 10 µM; read-out: IC50
value-kind: IC50
Respond with the figure and its unit, in that order.

GET /value?item= `C#C[C@]1(O)CC[C@H]2[C@@H]3CCc4cc(O)ccc4[C@H]3CC[C@@]21C` &field=IC50 returns 0.559 µM

get_value(item= `C#C[C@]1(O)CC[C@H]2[C@@H]3CCC4=Cc5oncc5C[C@]4(C)[C@H]3CC[C@@]21C` , readout=IC50) returns 6.84 µM

IC50 reported for this compound CC(CCc1ccc(O)cc1)NCCc1ccc(O)c(O)c1 (centres undefined) : 0.155 µM

Measured IC50 of `CC[C@H](C)C(=O)O[C@H]1C[C@@H](C)C=C2C=C[C@H](C)[C@H](CC[C@@H]3C[C@@H](O)CC(=O)O3)[C@H]21` : 10.1 µM

* * *

test-summary: DRUGMATRIX: Phosphodiesterase PDE3 enzyme inhibition (substrate: [3H]cAMP + cAMP)
Format: tissue-based, Homo sapiens
measurement-context: platelet; Not Active = under 50% inhibition at 10 µM
value-kind: IC50

Study these solved cases before continuing.
# compound, value
rows = [
    ("C[C@H](C(=O)O)c1cccc(C(=O)c2ccccc2)c1", "Not Active"),
    ("[N-]=[N+]=CC(=O)OC[C@H](N)C(=O)O", "Not Active"),
    ("O=C(c1ccccc1Cl)N1CCC(Cc2ccccc2)CC1", "Not Active"),
    ("C[C@@H]1C[C@H]2[C@@H]3CCC4=CC(=O)C=C[C@]4(C)C3=CC[C@]2(C)[C@H]1C(=O)CN1CCN(c2cc(N3CCCC3)nc(N3CCCC3)n2)CC1", "Not Active"),
    ("COc1ccc(/C=C/C(=O)Nc2ccccc2C(=O)O)cc1OC", "Not Active"),
]

Lab note: measured IC50 of `NC[C@H]1O[C@H](O[C@H]2[C@H](O)[C@@H](O[C@H]3O[C@H](CO)[C@@H](O)[C@H](N)[C@H]3O)[C@H](N)C[C@@H]2N)[C@H](O)[C@@H](O)[C@@H]1O` was Not Active

Sample COC(=O)c1ccccc1O [METHYL SALICYLATE] ; IC50 observed: Not Active

Per the records, this compound ( CCCCCC[C@H]1C(=O)O[C@H](C)[C@H](NC(=O)c2cccc(NC=O)c2O)C(=O)O[C@@H](C)[C@@H]1OC(=O)CC(C)C [ANTIMYCIN A] ) has IC50 equal to Not Active

IC50 recorded for this compound, `CC(C)(C)c1ccc(S(=O)(=O)/C=C/C#N)cc1` , is Not Active

Reported IC50 ( `COc1ccc(CN2CCNCC2)c(OC)c1OC` ) = Not Active
